- Test system: HOP-92
- assay text: NCI tumour cell line growth inhibition, 48 h
Activity calls are given as the source filed them. Cut-off read from the data, not from the text of the source: active = GI50 up to about 1.1 µM and inactive = higher.
experimental endpoint: GI50

As a guide, the following entries are already answered.
- O=C1c2ccccc2-c2[nH]c3cn[nH]c(=O)c3c21: 16.4 µM (inactive)
- O=c1[nH]c(=O)n(C2CC(O)C(O)C(CO)O2)cc1F (stereo unspecified): > 100 µM (inactive)
- N#Cc1nc(-c2ccccn2)c(-c2ccccn2)nc1C#N: 7.96 µM (inactive)

Input CCOC(=O)/C(=C/c1cc(OC)ccc1OC)CC(=O)O , output reported GI50. > 100 µM (inactive)

Supply recorded GI50 for COc1cc(C2c3cc4c(cc3OC(NN)C2C)OCO4)cc(OC)c1O (stereo unspecified) here. 23.6 µM (inactive)

Give the reported value of GI50 for this record: CN(Cc1cc(Br)cc(Br)c1O)Cc1c(O)ccc2ccccc12 19.1 µM (inactive)

Note GI50 for the compound shown: Cc1cc(N(CCCl)CCCl)ccc1/C=N/NC(=O)Cc1cc(=O)oc2cc(O)ccc12 27 µM (inactive)

====

- Tested on: HOP-62
- assay text: NCI tumour cell line growth inhibition, 48 h
The source made the active and inactive calls. No stated cut-off is given here; in the data, active = GI50 up to about 1.1 µM and inactive = higher.
experimental endpoint: GI50

* CC1=C(C)SC(=C2Sc3c(n(C)c(=O)[nH]c3=O)S2)S1 | > 100 µM (inactive)

Given the compound c1ccc(/N=C2\SC(c3ccccc3)CN2C23CC4CC(CC(C4)C2)C3)cc1 (stereo not given) , write its reported GI50. > 100 µM (inactive)

Please give the documented GI50 of CCC1(N=[N+]=[N-])C(=O)c2ccccc2N(C)C1=O (stereo not given) > 100 µM (inactive)

====

- Tested on: NCI/ADR-RES
- assay text: NCI tumour cell line growth inhibition, 48 h
Active and inactive are the calls of the source. No stated cut-off is given here; in the data, active = GI50 up to about 1.1 µM and inactive = higher.
experimental endpoint: GI50

For the compound O=C(/C=C(\N=P(c1ccccc1)(c1ccccc1)c1ccccc1)C(F)(F)C(F)(F)C(F)(F)C(F)(F)C(F)(F)C(F)(F)C(F)(F)F)c1ccccc1 , give its reported GI50. > 100 µM (inactive)

Answer with the recorded GI50 for the compound listed here: CN1C(=O)C(CC(=O)O)NC1=S (centres undefined) > 100 µM (inactive)

Please supply the value of reported GI50 for the item O=c1c2ccccc2sc2nc(CCl)nn12 > 100 µM (inactive)

Please supply the value of reported GI50 for the item C[C@H](CCC(=O)O)[C@H]1CC[C@@]2(C)[C@@H]3C(=O)C[C@H]4C(C)(C)[C@@H](O)CC[C@]4(C)[C@H]3C(=O)C[C@]12C > 100 µM (inactive)

For O=C(c1cccs1)N(C(=S)OCCOc1ccccc1)c1ccccc1 , write its GI50. 20.9 µM (inactive)

Please report GI50 for the following compound: CO/C=C(/C(=O)OC)c1ccccc1[C@H]1C[C@@H]1c1ccccc1 24 µM (inactive)

Fill in reported GI50 for this entry: CC(C)CCNC(=O)c1ccc(CNC(=O)/C=C/c2cccc(Oc3ccccc3)c2)cc1 37.2 µM (inactive)

Identify measured GI50 associated with CCOC(=O)C1CCCC1S(=O)(=O)c1ccc(C)cc1 (centres undefined) > 100 µM (inactive)

Using known records, supply GI50 for COc1cc(C2C3=C(CCCC3=O)N(c3ccc(C)cc3)C3=C2C(=O)CCC3)c([N+](=O)[O-])cc1OC > 100 µM (inactive)
